These entries and their values trace back to patent US20240165023A1.

Test: Plasma pharmacokinetics of ensifentrine after administration of the composition to healthy patients
Type: in vivo
Settings: human, inhaled
MEASUREMENT_TYPE: Cmax (ng/mL)
Lab book: enter the figure in ng/mL, no units written.

Value of measured Cmax for the entry `COc1cc2c(cc1OC)-c1c/c(=N\c3c(C)cc(C)cc3C)n(CCNC(N)=O)c(=O)n1CC2` : 0.852

* * *

Experiment: Plasma pharmacokinetics of ensifentrine in COPD patients, popPK model simulation from trial samples
Format: in vivo, human
Conditions: human, plasma, inhaled, 3 mg; patients with COPD
Protocol: Plasma concentrations of ensifentrine for the assessment of pharmacokinetic (PK) parameters were measured using validated bioanalytical methods for ensifentrine in human plasma with LLOQ of 5 pg/mL. […] Based on the samples taken during the trial, PK data was modelled for COPD patients with normal renal function. […] Individual subject concentrations were simulated using NONMEM version 7.4.3, and PK parameters were calculated using R version 3.4.0.
MEASUREMENT_TYPE: AUC (ng·h/mL)
Lab book: enter the figure in ng·h/mL, no units written.

Value of measured AUC for the entry COc1cc2c(cc1OC)-c1c/c(=N\c3c(C)cc(C)cc3C)n(CCNC(N)=O)c(=O)n1CC2 [Ensifentrine] : 2.45
